Data provenance: patent US12312370B2

Listed next: entries and their corresponding pIC50.
target: HT29/B5c (Homo sapiens); assay: Proteasome-Glo inhibition of proteasome activity in cells, HT29/B5c; format: cell-based; settings: HT-29 cells, 2 h incubation at 37° C.
pIC50: −log10 of the molar value.
RESULT TYPE: pIC50

INSERT INTO assay_data (smiles_repr, subject_of_test, endpoint_value) VALUES
  ('C=CC(=O)N(C)c1cccc(C[C@H](NC(=O)c2cc(Cl)ccc2Cl)C(=O)N[C@@H](Cc2ccccc2)B(O)O)c1', 'HT29/B5c (Homo sapiens)', 6.85),
  ('CC(C)C=C(C#N)C(=O)N1CCC(CCCC(=O)N[C@@H](Cc2ccccc2)B(O)O)CC1', 'HT29/B5c (Homo sapiens)', 5.44),
  ('CC(C)C=C(C#N)C(=O)NCCCC[C@H](NCC(F)(F)F)C(=O)N[C@@H](Cc1ccccc1)B(O)O', 'HT29/B5c (Homo sapiens)', 6.62),
  ('CC(C)C=C(C#N)C(=O)N1CCC[C@@H]1COC[C@H](NC(=O)c1cc(Cl)ccc1Cl)C(=O)N[C@@H](Cc1ccccc1)B(O)O', 'HT29/B5c (Homo sapiens)', 7.22);

----------
Listed next: entries and their corresponding IC50.
target: constitutive proteasome β5c unit (Homo sapiens); assay: Caliper-based proteasome enzymatic activity assay, β5c; details: human recombinant constitutive proteasome 0.3 nM, FAM-labeled peptide substrate 1 μM, rt 3 h; read-out: β5c subunit IC50
RESULT TYPE: IC50 (nM)

INSERT INTO measurements (molecule, subject_of_test, result_type, value_comparator, endpoint_value) VALUES
  ('N#CC(=CC1CC1)C(=O)N1CCC[C@@H]1COC[C@H](NCC(F)(F)F)C(=O)N[C@@H](Cc1ccccc1)B(O)O [Example 22]', 'constitutive proteasome β5c unit (Homo sapiens)', 'IC50', '=', 308),
  ('CC(C)(C=C(C#N)C(=O)N1CCCC[C@@H](OC(=O)N[C@@H](Cc2ccccc2)B(O)O)C1)N1CCC(F)(F)C1 (single isomer, unassigned) [Example 105]', 'constitutive proteasome β5c unit (Homo sapiens)', 'IC50', '=', 1340),
  ('CC1(C)CN(C(C)(C)C=C(C#N)C(=O)N2CCCC[C@@H](OC(=O)N[C@@H](Cc3ccccc3)B(O)O)C2)CCO1 [Example 136]', 'constitutive proteasome β5c unit (Homo sapiens)', 'IC50', '=', 1280),
  ('CC(C)C=C(C#N)C(=O)NCCCC[C@H](NC(=O)c1cnccn1)C(=O)N[C@@H](CC(C)C)B(O)O [Example 2]', 'constitutive proteasome β5c unit (Homo sapiens)', 'IC50', '=', 8.5),
  ('C=CC(=O)N1CCC[C@H]1CNC(=O)N[C@@H](Cc1ccccc1)B(O)O [Example 37]', 'constitutive proteasome β5c unit (Homo sapiens)', 'IC50', '>', 5000),
  ('C=CC(=O)N1CC(COC(=O)N[C@@H](Cc2ccccc2)B(O)O)C1 [Example 86]', 'constitutive proteasome β5c unit (Homo sapiens)', 'IC50', '=', 218),
  ('CC(C)C=C(C#N)C(=O)NCCCC[C@H](NC(=O)c1cccc(O)n1)C(=O)N[C@@H](Cc1ccccc1)B(O)O [Example 6]', 'constitutive proteasome β5c unit (Homo sapiens)', 'IC50', '=', 38.5);
